measurement protocol: Apparent permeability across apical to basolateral side in human Caco-2 cells
Assay type: ADME, cell-based
reported metric: Papp A→B (×10⁻⁶ cm/s)
Give the number; ×10⁻⁶ cm/s is assumed, so skip it.

For CC[C@@H](NC(=O)c1ccc(OC)nc1)[C@H]1CC[C@@H](c2ccnc(OC)c2C(F)F)CC1 the compound record lists Papp A→B as 12.2

====

measurement protocol: Clearance in cynomolgus monkey at 1 mg/kg, iv
Type: ADME, organism-based, Macaca fascicularis
experimental parameters: in vivo
reported metric: clearance (mL/min/kg)
Give the number; mL/min/kg is assumed, so skip it.

For CC[C@@H](NC(=O)c1ccc(OC)nc1)[C@H]1CC[C@@H](c2ccnc(OC)c2C(F)F)CC1 the compound record lists clearance as 29

====

reported metric: pIC50
Friendly reminder that pIC50 comes from taking -log10 of the concentration in mol/L.

Field pIC50 (system: Voltage-gated inwardly rectifying potassium channel KCNH2 (Homo sapiens)) for entry CC[C@@H](NC(=O)c1ccc(OC)nc1)[C@H]1CC[C@@H](c2ccnc(OC)c2C(F)F)CC1 = 4.76

====

Tested on: Cytochrome P450 (CYP)
measurement protocol: Metabolic stability assessed as cynomolgus monkey CYP-mediated metabolism by measuring half life
Assay type: ADME, Macaca fascicularis
reported metric: half-life (min)
Give the number; min is assumed, so skip it.

For CC[C@@H](NC(=O)c1ccc(OC)nc1)[C@H]1CC[C@@H](c2ccnc(OC)c2C(F)F)CC1 the molecule record lists half-life as 3

====

Please provide measured pIC50 for the entries that follow.
system name: Indoleamine 2,3-dioxygenase 1 (Homo sapiens, UniProt P14902)
Sequence (P14902 whole entry): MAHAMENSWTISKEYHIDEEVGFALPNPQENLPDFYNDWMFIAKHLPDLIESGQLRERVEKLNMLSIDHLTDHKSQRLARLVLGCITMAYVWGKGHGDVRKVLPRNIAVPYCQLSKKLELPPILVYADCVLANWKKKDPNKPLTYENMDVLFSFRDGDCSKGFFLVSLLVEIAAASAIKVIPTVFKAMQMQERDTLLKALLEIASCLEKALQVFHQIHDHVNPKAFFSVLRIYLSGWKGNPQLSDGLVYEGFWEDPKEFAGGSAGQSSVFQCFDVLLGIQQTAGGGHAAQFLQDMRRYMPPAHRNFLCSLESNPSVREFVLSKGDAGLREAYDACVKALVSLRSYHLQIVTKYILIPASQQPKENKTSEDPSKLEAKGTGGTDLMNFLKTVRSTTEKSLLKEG
measurement protocol: Inhibition of IDO1 in IFNgamma-stimulated human HeLa cells preincubated for 2 hrs followed by recombinant human IFNgamma stimulation and measured after 18 hrs by fluorescence based microplate reader assay
Friendly reminder that pIC50 comes from taking -log10 of the concentration in mol/L.

For CC[C@@H](NC(=O)c1ccc(Cl)cc1)[C@H]1CC[C@H](c2cccc(C(F)(F)F)n2)CC1 the compound record lists pIC50 as 7.40

For CC[C@@H](NC(=O)c1ccc(Cl)cc1)[C@H]1CC[C@@H](c2ccnc(OC)c2F)CC1 the compound record lists pIC50 as 8.52

For Cc1nccc([C@H]2CC[C@@H]([C@@H](C)NC(=O)c3ccc(Cl)cc3)CC2)c1C the compound record lists pIC50 as 8.40

For Cc1c(F)nccc1[C@H]1CC[C@@H]([C@@H](C)NC(=O)c2ccc(Cl)cc2)CC1 the compound record lists pIC50 as 8.30

For CC[C@@H](NC(=O)c1ccc(Cl)cc1)[C@H]1CC[C@@H](c2ccnc(OC)c2C)CC1 the compound record lists pIC50 as 8.70

For CC[C@@H](NC(=O)c1ccc(Cl)cc1)[C@H]1CC[C@H](c2nccc(OC)n2)CC1 the compound record lists pIC50 as 7.10

For CC[C@@H](NC(=O)c1ccc(Cl)cc1)[C@H]1CC[C@@H](c2ccnc(OC)c2C(F)F)CC1 the compound record lists pIC50 as 8.70

For CC[C@@H](NC(=O)c1ccc(Cl)cc1)[C@H]1CC[C@@H](c2cccnc2OC)CC1 the compound record lists pIC50 as 6.32

For CC[C@@H](NC(=O)c1ccc(Cl)cc1)[C@H]1CC[C@H](c2cccc(=O)n2C)CC1 the compound record lists pIC50 as 7.59

====

measurement protocol: Apparent permeability of the compound at pH 7.4 by PAMPA
Format: ADME
reported metric: Papp (×10⁻⁶ cm/s)
Give the number; ×10⁻⁶ cm/s is assumed, so skip it.

For CC[C@@H](NC(=O)c1ccc(OC)nc1)[C@H]1CC[C@@H](c2ccnc(OC)c2C(F)F)CC1 the compound record lists Papp as 107

====

measurement protocol: AUC in dog at 1 mg/kg, iv
Type: ADME, organism-based, Canis lupus familiaris
Set-up: dose 1 mg/kg
experimental parameters: in vivo
reported metric: AUC (µM·h)
Give the number; µM·h is assumed, so skip it.

For CC[C@@H](NC(=O)c1ccc(OC)nc1)[C@H]1CC[C@@H](c2ccnc(OC)c2C(F)F)CC1 the compound record lists AUC as 2.3

====

measurement protocol: Volume of steady state distribution in dog at 1 mg/kg, iv
Assay type: ADME, organism-based, Canis lupus familiaris
experimental parameters: in vivo, read-out: Vdss
reported metric: Vd (L/kg)
Give the number; L/kg is assumed, so skip it.

For CC[C@@H](NC(=O)c1ccc(OC)nc1)[C@H]1CC[C@@H](c2ccnc(OC)c2C(F)F)CC1 the compound record lists Vd as 9

====

Tested on: UDP-glucuronosyltransferases (UGT)
measurement protocol: Metabolic stability assessed as cynomolgus monkey UGT-mediated metabolism by measuring half life
Type: ADME, Macaca fascicularis
reported metric: half-life

Field half-life (system: UDP-glucuronosyltransferases (UGT)) for entry CC[C@@H](NC(=O)c1ccc(OC)nc1)[C@H]1CC[C@@H](c2ccnc(OC)c2C(F)F)CC1 = > 2 h

====

Tested on: UDP-glucuronosyltransferases (UGT)
measurement protocol: Metabolic stability assessed as mouse UGT-mediated metabolism by measuring half life
Type: ADME
reported metric: half-life

For CC[C@@H](NC(=O)c1ccc(OC)nc1)[C@H]1CC[C@@H](c2ccnc(OC)c2C(F)F)CC1 the compound record lists half-life as > 2 h

====

measurement protocol: Volume of steady state distribution in mouse at 1 mg/kg, iv
Type: ADME, organism-based
experimental parameters: in vivo, read-out: Vdss
reported metric: Vd (L/kg)
Give the number; L/kg is assumed, so skip it.

For CC[C@@H](NC(=O)c1ccc(OC)nc1)[C@H]1CC[C@@H](c2ccnc(OC)c2C(F)F)CC1 the compound record lists Vd as 6.2

====

Please provide measured pIC50 for the entries that follow.
system name: Indoleamine 2,3-dioxygenase 1 (Homo sapiens)
measurement protocol: Inhibition of IDO1 in IFNgamma/LPS-stimulated human whole blood preincubated for 4 hrs followed by IFNgamma/LPS stimulation and incubated for 18 hrs by Rapid-fire mass spectrometry analysis
Assay type: tissue-based
Friendly reminder that pIC50 comes from taking -log10 of the concentration in mol/L.

For Cc1c(F)nccc1[C@H]1CC[C@@H]([C@@H](C)NC(=O)c2ccc(Cl)cc2)CC1 the compound record lists pIC50 as 7.33

For CC[C@@H](NC(=O)c1ccc(Cl)cc1)[C@H]1CC[C@@H](c2ccnc(OC)c2F)CC1 the compound record lists pIC50 as 7.96

For CC[C@@H](NC(=O)c1ccc(Cl)cc1)[C@H]1CC[C@@H](c2ccnc(OC)c2C(F)F)CC1 the compound record lists pIC50 as 8.36

For COC[C@@H](NC(=O)c1ccc(Cl)cc1)[C@H]1CC[C@@H](c2ccnc(OC)c2C(F)F)CC1 the compound record lists pIC50 as 8.39

For CC[C@@H](NC(=O)c1ccc(OC)nc1)[C@H]1CC[C@@H](c2ccnc(OC)c2C(F)F)CC1 the compound record lists pIC50 as 8.64

For CC[C@@H](NC(=O)c1ccc(Cl)cc1)[C@H]1CC[C@@H](c2ccnc(OC)c2C)CC1 the compound record lists pIC50 as 8.55

====

Test system: UDP-glucuronosyltransferases (UGT)
measurement protocol: Metabolic stability assessed as rat UGT-mediated metabolism by measuring half life
Format: ADME
reported metric: half-life

For CC[C@@H](NC(=O)c1ccc(OC)nc1)[C@H]1CC[C@@H](c2ccnc(OC)c2C(F)F)CC1 the compound record lists half-life as > 2 h

====

measurement protocol: AUC in dog at 5 mg/kg, po
Type: ADME, organism-based, Canis lupus familiaris
Parameters: dose 5 mg/kg
experimental parameters: in vivo
reported metric: AUC (µM·h)
Give the number; µM·h is assumed, so skip it.

For CC[C@@H](NC(=O)c1ccc(OC)nc1)[C@H]1CC[C@@H](c2ccnc(OC)c2C(F)F)CC1 the compound record lists AUC as 3.2

====

system name: hERG (KCNH2) (Homo sapiens)
Sequence (Q12809 whole entry): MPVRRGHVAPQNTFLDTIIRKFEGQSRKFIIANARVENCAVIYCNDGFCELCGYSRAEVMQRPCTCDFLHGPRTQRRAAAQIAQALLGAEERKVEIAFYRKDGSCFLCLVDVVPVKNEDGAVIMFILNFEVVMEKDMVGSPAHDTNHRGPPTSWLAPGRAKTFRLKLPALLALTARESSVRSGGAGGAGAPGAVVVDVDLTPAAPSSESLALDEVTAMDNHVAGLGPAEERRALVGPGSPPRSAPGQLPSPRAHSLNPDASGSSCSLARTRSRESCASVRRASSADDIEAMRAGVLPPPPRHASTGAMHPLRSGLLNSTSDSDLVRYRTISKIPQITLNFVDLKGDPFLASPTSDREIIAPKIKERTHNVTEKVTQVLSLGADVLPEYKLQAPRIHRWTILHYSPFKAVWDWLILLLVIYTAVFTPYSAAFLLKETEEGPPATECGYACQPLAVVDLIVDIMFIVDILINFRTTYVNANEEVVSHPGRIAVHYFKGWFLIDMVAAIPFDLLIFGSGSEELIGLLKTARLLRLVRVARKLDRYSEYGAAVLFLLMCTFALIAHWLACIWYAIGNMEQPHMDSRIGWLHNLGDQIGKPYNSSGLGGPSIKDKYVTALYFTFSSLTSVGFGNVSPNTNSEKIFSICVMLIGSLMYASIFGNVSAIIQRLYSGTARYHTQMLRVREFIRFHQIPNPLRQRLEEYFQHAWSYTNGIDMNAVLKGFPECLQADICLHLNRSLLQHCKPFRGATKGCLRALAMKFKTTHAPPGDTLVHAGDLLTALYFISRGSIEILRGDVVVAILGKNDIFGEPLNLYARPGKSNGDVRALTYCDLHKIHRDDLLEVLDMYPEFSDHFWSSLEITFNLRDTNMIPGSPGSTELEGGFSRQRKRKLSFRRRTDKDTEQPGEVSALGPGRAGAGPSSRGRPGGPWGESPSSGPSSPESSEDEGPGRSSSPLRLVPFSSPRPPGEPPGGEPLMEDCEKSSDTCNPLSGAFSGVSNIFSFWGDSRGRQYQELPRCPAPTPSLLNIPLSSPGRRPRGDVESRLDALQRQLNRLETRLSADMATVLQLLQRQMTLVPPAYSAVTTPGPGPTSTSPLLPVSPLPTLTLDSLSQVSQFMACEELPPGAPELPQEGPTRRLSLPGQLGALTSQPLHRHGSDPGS
measurement protocol: Inhibition of hERG (unknown origin) at 30 uM relative to control
reported metric: inhibition at 30 µM (%)
Give the number; % is assumed, so skip it.

For CC[C@@H](NC(=O)c1ccc(OC)nc1)[C@H]1CC[C@@H](c2ccnc(OC)c2C(F)F)CC1 the compound record lists inhibition at 30 µM as 61

====

Please provide measured AUC at 24 h for the entries that follow.
measurement protocol: AUC (0 to 24 hrs) in human SK-OV-3 cells xenografted in nu/nu mouse xenograft model measured in tumor at 60 mg/kg, po QD
Assay type: ADME, organism-based
Parameters: time < 24 hr, route oral, dose 60 mg/kg
Give the number; µM·h is assumed, so skip it.

For C[C@@H](C(=O)Nc1ccc(Cl)cc1)[C@H]1CC[C@@H](c2ccnc3ccc(F)cc32)CC1 the compound record lists AUC at 24 h as 18

For CC[C@@H](NC(=O)c1ccc(OC)nc1)[C@H]1CC[C@@H](c2ccnc(OC)c2C(F)F)CC1 the compound record lists AUC at 24 h as 9.2
